Provenance of the data: ChEMBL document CHEMBL4725400

For each of the compounds below, state its selectivity ratio.
Assay: Selectivity index, ratio of MTD for cytotoxicity against human HaCaT cells to EC50 for antimalarial activity against blood stage chloroquine-resistant Plasmodium falciparum Dd2 infected in human erythrocytes
Assay type: toxicity, cell-based
Details: read-out: Selectivity Index
Lab note: record the figure alone, no unit after it.

Reported selectivity ratio for [C-]#[N+]c1ccc(/C=C/c2ccc([N+]#[C-])cc2)cc1 was 4740

Record summary for [C-]#[N+]c1ccc(/C=C/c2ccncc2)cc1 : reported selectivity ratio = 1450
